The following compounds are listed with their measured IC50 values.
biological target: human P2X7 receptor (Homo sapiens, UniProt Q99572, R270H/Y155H); experiment: Evaluation of human P2X7 receptor inhibitory activity (Yo-Pro uptake, BzATP stimulation, FLIPR TETRA); format: cell-based; settings: 1321N1 cells stably expressing human P2X7 receptor; BzATP stimulation, Yo-Pro uptake; read-out: IC50 (antagonistic activity for the human P2X7 receptor), class symbol

Check out these entries, answers already filled in.
- SMILES: "COc1cn(Cc2ccccc2)c(Nc2cccc(Cl)c2Cl)nc1=O"
  IC50: "10 to 100 nM"
- SMILES: "COc1cn(Cc2ccccc2)c(Nc2cc(Cl)ccc2Cl)nc1=O"
  IC50: "100 to 500 nM"
- SMILES: "CCOc1ccc(C)c(Nc2nc(=O)c(OC)cn2Cc2ccccc2)c1"
  IC50: "10 to 100 nM"
- SMILES: "COc1cn(Cc2ccccc2)c(NCc2cccc(C(F)(F)F)c2Cl)nc1=O"
  IC50: "100 to 500 nM"
- SMILES: "Cc1c(Cl)cccc1Nc1nc(=O)ccn1Cc1ccccc1"
  IC50: "< 10 nM"
- SMILES: "COc1cn(Cc2ccccc2)c(Nc2cc(C)c(Cl)cc2C)nc1=O"
  IC50: "< 10 nM"
- SMILES: "COc1cc(Nc2nc(=O)c(OC)cn2Cc2ccc(F)c(Cl)c2)c(C)cc1Cl"
  IC50: "< 10 nM"
- SMILES: "Cc1cc2c(cc1Nc1nc(=O)c(F)cn1Cc1cccc(Cl)c1)OCCO2"
  IC50: "10 to 100 nM"

I would be grateful if you could share the reported IC50 for COc1cn(Cc2cc(F)cc(F)c2)c(Nc2cccc3sccc23)nc1=O . < 10 nM

I would be grateful if you could share the reported IC50 for CCc1c(Nc2nc(=O)c(F)cn2Cc2cccc(Cl)c2)cc(OC)cc1OC . < 10 nM

I would be grateful if you could share the reported IC50 for CCc1cc(OC)ccc1Nc1nc(=O)c(OC)cn1Cc1ccc(F)cc1 . < 10 nM
